- target_of_assay: human FLT3-ITD enzyme (Homo sapiens)
- protocol_notes: FLT3 enzyme inhibitory ability (ADP-Glo kinase assay)
- test_settings: human FLT3-ITD enzyme 10 ng, ATP 10 μM, 25° C. 1 hour
pIC50: −log10 of the molar value.
quantity_kind: pIC50

[[record]]
compound = "CN1CCN(c2ccc(Nc3nc(N4N=CCC4c4ccccn4)c4sccc4n3)cc2)CC1 (centres unmarked)"
quantity_kind = "pIC50"
observed = "< 6.30"

[[record]]
compound = "CN1CCN(c2ccc(Nc3nc(N4N=CCC4c4ccncc4)c4sccc4n3)cc2)CC1 (centres unmarked)"
quantity_kind = "pIC50"
observed = "< 6.30"

[[record]]
compound = "CN(C)[C@H]1CCN(c2cccc(Nc3nc(N4N=CCC4c4ccccc4)c4sccc4n3)c2)C1 (some centres unmarked)"
quantity_kind = "pIC50"
observed = "< 6.30"

[[record]]
compound = "CN(C)C1CCN(c2ccc(Nc3nc(N4N=CCC4c4ccccc4)c4sccc4n3)cc2)CC1 (centres unmarked)"
quantity_kind = "pIC50"
observed = "≤ 6.60"

[[record]]
compound = "CN1CCN(c2ccc(Nc3nc(N4N=CCC4c4ccccc4)c4cc[nH]c4n3)cc2)CC1 (centres unmarked)"
quantity_kind = "pIC50"
observed = "6.30 to 6.60"

[[record]]
compound = "CN1Cc2cc(Nc3nc(N4N=CCC4c4ccccc4)c4sccc4n3)ccc2C1=O (centres unmarked)"
quantity_kind = "pIC50"
observed = "< 6.30"

[[record]]
compound = "COc1cccc([C@@H]2CCON2c2nc(Nc3ccc(N4CCN(C)CC4)cc3)nc3[nH]ccc23)c1"
quantity_kind = "pIC50"
observed = "6.30 to 6.60"

[[record]]
compound = "C1=NN(c2nc(Nc3ccc(N4CCC(N5CCOCC5)CC4)cc3)nc3ccsc23)C(c2ccccc2)C1 (centres unmarked)"
quantity_kind = "pIC50"
observed = "< 6.30"

